fold change (FC) values by entry
target.desc: Tubulin (Homo sapiens) (UniProt P68371+Q9H4B7+P0DPH7+P68366+Q13509+Q71U36+P04350+Q3ZCM7+P07437+P68363+Q9BQE3+Q6PEY2+Q13885+Q9BVA1+Q9BUF5)
procedure.details: Stabilization of microtubules in human QBI293 cells assessed as fold change in alpha tubulin levels at 10 uM after 4 hrs by ELISA relative to DMSO
Format: cell-based

[
  {
    "smiles.str": "CC(C)Nc1c(-c2c(F)cc(F)cc2F)c(Cl)nc2ncnn12",
    "fold change (FC)": 0.98
  },
  {
    "smiles.str": "Cc1cc(F)c(-c2c(Cl)nc3ncnn3c2N[C@@H](C)C(F)(F)F)c(F)c1",
    "fold change (FC)": 0.78
  },
  {
    "smiles.str": "C[C@H](Nc1c(-c2c(F)cc([N+](=O)[O-])cc2F)c(Cl)nc2ncnn12)C(F)(F)F",
    "fold change (FC)": 0.94
  },
  {
    "smiles.str": "C[C@H](Nc1c(-c2ccc(F)c(F)c2F)c(Cl)nc2ncnn12)C(F)(F)F",
    "fold change (FC)": 0.88
  },
  {
    "smiles.str": "C[C@H](Nc1c(-c2c(F)cc([S@@+]([O-])CCCN(C)C)cc2F)c(Cl)nc2ncnn12)C(F)(F)F",
    "fold change (FC)": 0.98
  }
]
